EXPERIMENT_NOTES: amyloid nucleation score (Sup35N fusion, yeast selection) (log enrichment); library NNK3; higher = more nucleation; inactive = no reads after selection;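 also: zero at mode of non-aggregating sequences after 7 days selection at 30°C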
ASSAY_METRIC: amyloid nucleation score

Solved entries:
AVISKDCDSYAIYHHVFHST :: inactive
RTFMYMWRSEIF :: inactive
FSIRDSTTLKVPEECLSTWI :: inactive
VSEFFFP :: inactive
VEDLMF :: inactive

Assign amyloid nucleation score to the following record: LQDMPGNGFPVWVDISFSSY inactive

Give amyloid nucleation score for GAMWLSCT inactive

Give recorded amyloid nucleation score. HTLRWE inactive

Kindly indicate its recorded amyloid nucleation score. Item: PTLYRQNGLLWLVDGEKLIR inactive

Quick one: give measured amyloid nucleation score for NYSFWLAIYSPCRSKCYARC 1.58

Supply amyloid nucleation score value. Item: KYQLPRDNFS inactive

Return value of amyloid nucleation score for input VVKFFVWLDVFYVWGLAGII , no commentary. inactive

Recall and state the measured amyloid nucleation score for SLGTIMFVCGGPRGHLCSVR . -0.414

Query amyloid nucleation score for LLVRMILNYKELLVTAILQV inactive

Please list amyloid nucleation score recorded for the substance GWNSRM inactive

Tell me its amyloid nucleation score given NNLFWHNAVCLGALEEYLSK as the entry. inactive

Return the recorded amyloid nucleation score value; entry: RSRKKRCFLKFILKNFVWSV inactive

Quote amyloid nucleation score reported for SIFLGLRSRQLSFISLLEDG please. inactive

Query amyloid nucleation score for CDVCNM inactive

Entry CEISLV needs its amyloid nucleation score filled in; supply it. 0.767

Report amyloid nucleation score, nothing else, for this substance: ILGIRYVIRINFLTRVRIHN inactive

Give the value of amyloid nucleation score reported for the following: DSNWRNMRGLHFY inactive

Indicate its recorded amyloid nucleation score; the substance in question is QFSRWI inactive

---

EXPERIMENT_NOTES: amyloid nucleation score (Sup35N fusion, yeast selection) (log enrichment); library NNK1; higher = more nucleation; inactive = no reads after selection
ASSAY_METRIC: amyloid nucleation score
Number only, no unit.

Observe how each entry below is paired with its result.
TKGFLSNGFLVWPVCIVILW :: 0.387
DFRLGHDFWANKSFFFTSPN :: -0.028
LFVNFGTLS :: 0.391
PSMARPAARTHVDNNRWR :: -0.051

Give amyloid nucleation score for MGAVKH -0.017

Item TYDGSKAIVALSKGNKN : provide amyloid nucleation score 0.915

---

EXPERIMENT_NOTES: amyloid nucleation score (Sup35N fusion, yeast selection) (log enrichment); library NNK2; higher = more nucleation; inactive = no reads after selection
ASSAY_METRIC: amyloid nucleation score

See these solved cases before continuing.
AAVNWNRFPKTVTA :: -0.195
PEMWHYMRFSSIKIRLTSKF :: -0.016
FANRILCVVSGINRVTGL :: 0.192
GVRSNLSYNIFVTCAMRASG :: inactive
KMCLIRYMHNPKVGIRLGRS :: 0.102

In one line, give reported amyloid nucleation score of the entry EFTAFYGQEFKW . 0.182

For the substance CMVNPVPWDCLVRKFMFVGA , give its measured amyloid nucleation score value. -0.421

Annotate the substance NNWYILPFAGFWDFGA with its measured amyloid nucleation score. 5.34

Report amyloid nucleation score for DNTLLALVGM 1.57

Assign amyloid nucleation score to the following record: NARVTGVF inactive

Tell me measured amyloid nucleation score for YSGWVSDS please. inactive

Identify measured amyloid nucleation score associated with TLMQSYVQFWYTLYSHNNWL -0.698

Give recorded amyloid nucleation score. VARHIHLTRSRNNFSSGRKA 0.958

// fetch amyloid nucleation score given entry KLNCMRGLPGLCPRWFIIAC 0.089

Annotate the substance RYVQLIDHWSNGIVKVVGVL with its measured amyloid nucleation score. 0.783

Return amyloid nucleation score for the following substance: FELLPTR 3.3

For the substance SFKVMYKENNTNLGSLLWDG , give its measured amyloid nucleation score value. 0.049

Kindly indicate its recorded amyloid nucleation score. Item: YFWFYTV -0.691

These entries and their values trace back to the supplement of paper PMC12042874.
